Test: ATG_MRE_CIS: Attagene CIS-FACTORIAL HepG2 Assay for human Metal Responsive Element (MRE) (AID 2282954)
Conditions: HepG2 MRE cis-reporter transcription, Attagene multiplex; actives raise or lower the signal
Activity calls are given as the source filed them. The calls were made as follows: active = hit-call score of the fitted dose curve at least 0.9, where 1 is the maximum; inactive = score below 0.9.
Respond only with the outcome that fits, drawn from active, inactive

compound=CCS(=O)(=O)c1cccnc1S(=O)(=O)NC(=O)Nc1nc(OC)cc(OC)n1 class=inactive
compound=N#CN class=inactive
compound="CC[C@H](C)[C@H]1O[C@]2(C=C[C@@H]1C)C[C@@H]1C[C@@H](C/C=C(\\C)[C@@H](O[C@H]3C[C@H](OC)[C@@H](O[C@H]4C[C@H](OC)[C@@H](O)[C@H](C)O4)[C@H](C)O3)[C@@H](C)/C=C/C=C3\\CO[C@@H]4[C@H](O)C(C)=C[C@@H](C(=O)O1)[C@]34O)O2 (tested in a mixture with another compound)" class=inactive

Task: Name the outcome recorded for O=C(O)COc1ccc(Cl)cc1Cl in the assay.
Output: inactive

Task: # fetch the recorded call for COC(=O)c1ccccc1S(=O)(=O)NC(=O)Nc1nc(C)nc(OC)n1 here
Output: inactive

Task: Test call for this compound, please: CCc1ccc(C(=O)NN(C(=O)c2cc(C)cc(C)c2)C(C)(C)C)cc1
Output: active

Task: Would you mind telling me which call this test gave O=S1OCC2C(CO1)C1(Cl)C(Cl)=C(Cl)C2(Cl)C1(Cl)Cl (stereo not drawn) ?
Output: inactive

Task: What classification did CC1(C)C(C=C(Cl)Cl)C1C(=O)OC(C#N)c1ccc(F)c(Oc2ccccc2)c1 (stereo not drawn) end up with in this test?
Output: inactive

---

Read-out: ABC Transporter (ABCB1), ABCB1 (gene 5243)
Assay: CLD_ABCB1_48hr: CellzDirect (CLD) Gene Expression Assay for ABC Transporter (ABCB1) at 48 hours (AID 2283695)
Inconclusive results are not listed. Calls of active or inactive are those of the source. How the source made its calls: active means hit-call score of the fitted dose curve at least 0.9, where 1 is the maximum; inconclusive means response in the unintended direction; inactive means score below 0.9.
Pick from active, inactive when you respond.

compound="O=S1OCC2C(CO1)C1(Cl)C(Cl)=C(Cl)C2(Cl)C1(Cl)Cl (configuration not stated)" class=active
compound=C[C@H]1[C@H](c2ccc(Cl)cc2)SC(=O)N1C(=O)NC1CCCCC1 class=active
compound="CCC(C)Nc1c([N+](=O)[O-])cc(C(C)(C)C)cc1[N+](=O)[O-] (configuration not stated)" class=inactive
compound=CCOc1nc(NC)nc(NC(=O)NS(=O)(=O)c2ccccc2C(=O)OC)n1 class=inactive
compound="CC(C)(C)C(O)C(Oc1ccc(Cl)cc1)n1cncn1 (configuration not stated)" class=inactive
compound="CCOC1Oc2ccc(OS(C)(=O)=O)cc2C1(C)C (configuration not stated)" class=inactive
compound=CNC(=O)/C=C(\C)OP(=O)(OC)OC class=inactive
compound=O=C(O)COc1ccc(Cl)cc1Cl class=inactive
compound=N#CN class=inactive
compound=CCC(C)(C)C(=O)OC1=C(c2ccc(Cl)cc2Cl)C(=O)OC12CCCCC2 class=inactive

Task: Recorded test outcome, item O=S(=O)(O)C(F)(F)C(F)(F)C(F)(F)C(F)(F)C(F)(F)C(F)(F)C(F)(F)C(F)(F)F
Output: inactive

Task: Per the records of this test, what outcome belongs to ClC1C(Cl)C(Cl)C(Cl)C(Cl)C1Cl (configuration not stated) ?
Output: inactive

Value source: PubChem BioAssay (EPA / NIEHS)
